- Tested on: LOC_OS01G63280-cb003
- test description: thermal shift delta Tm vs DMSO control; higher = stronger stabilization (binding);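 note: purified Escherichia coli-expressed rice kinase domain construct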
- experimental parameters: 12.5 µM; protein concentration 2 µM
Structures can show the parent of a compound that is named as a salt.
Consider the following compounds and their measured thermal shift delta Tm readings.

- compound: "Cc1c(NC(=O)OC[C@@H]2COCCN2)cn2ncnc(Nc3ccc4c(cnn4Cc4cccc(F)c4)c3)c12"
  thermal shift delta Tm (°C): 0.59
- compound: "O=C(Nc1cccc(Cl)c1)Nc1ncc(CCNc2ncnc3ccsc23)s1 [SNS-314 Mesylate]"
  thermal shift delta Tm (°C): 2.76
- compound: "CCCCCCCCCCCCCCCCOP(=O)([O-])OCC[N+](C)(C)C [Miltefosine]"
  thermal shift delta Tm (°C): -4.06
- compound: "CCOc1cn(-c2ccc(F)cc2C)nc1C(=O)Nc1ccc(Oc2ccnc3cc(OC)c(OC)cc23)c(F)c1"
  thermal shift delta Tm (°C): 0.6
- compound: "COc1ccc2[nH]cc(/C=C3\\C(=O)Nc4ccc(NC(=O)CCN5CCCCC5)cc43)c2c1"
  thermal shift delta Tm (°C): 1.06
- compound: "N#Cc1c(O)c2c(-c3ccc(-c4ccccc4O)cc3)csc2[nH]c1=O"
  thermal shift delta Tm (°C): 0.82
- compound: "CNC(=O)c1cc(Oc2ccc(NC(=O)Nc3cc(C(C)(C)C)nn3-c3ccc4ncccc4c3)c(F)c2)ccn1 [Rebastinib (DCC-2036)]"
  thermal shift delta Tm (°C): 11.5
- compound: "C=CC(=O)Nc1ccc2ncnc(Nc3cccc(Br)c3)c2c1"
  thermal shift delta Tm (°C): -0.32
- compound: "CO[C@@H](C(=O)N1Cc2[nH]nc(NC(=O)c3ccc(N4CCN(C)CC4)cc3)c2C1)c1ccccc1"
  thermal shift delta Tm (°C): 0.57
- compound: "COc1ccc(/C=C/C(=O)C2(C(=O)/C=C/c3ccc(OC)c(OC)c3)CCCCC2)cc1OC"
  thermal shift delta Tm (°C): 0.1
- compound: "CN(C)Cc1cccc(N=C(c2ccccc2)c2c(O)[nH]c3cc(C(=O)N(C)C)ccc23)c1"
  thermal shift delta Tm (°C): 0.74
- compound: "Nc1nc2cc(-c3ccc4ncc(C(=O)N5CCOCC5)n4c3)ccc2o1 [Serabelisib (INK-1117,MLN-1117,TAK-117)]"
  thermal shift delta Tm (°C): 0.07
- compound: "COc1cc(Nc2ncc(F)c(Nc3ccc4c(n3)N(COP(=O)(O)O)C(=O)C(C)(C)O4)n2)cc(OC)c1OC [Fostamatinib (R788)]"
  thermal shift delta Tm (°C): 0.09
- compound: "C=CC(=O)Nc1cc(Nc2nccc(-c3c[nH]c4ccccc34)n2)c(OC)cc1N(C)CCN(C)C"
  thermal shift delta Tm (°C): 0.65
- compound: "Nc1ncnc2c1c(-c1cnc3[nH]ccc3c1)nn2C1CCCC1"
  thermal shift delta Tm (°C): 4.61

====

- System: LOC_OS01G52050-cb004
- Sequence (as listed by the source): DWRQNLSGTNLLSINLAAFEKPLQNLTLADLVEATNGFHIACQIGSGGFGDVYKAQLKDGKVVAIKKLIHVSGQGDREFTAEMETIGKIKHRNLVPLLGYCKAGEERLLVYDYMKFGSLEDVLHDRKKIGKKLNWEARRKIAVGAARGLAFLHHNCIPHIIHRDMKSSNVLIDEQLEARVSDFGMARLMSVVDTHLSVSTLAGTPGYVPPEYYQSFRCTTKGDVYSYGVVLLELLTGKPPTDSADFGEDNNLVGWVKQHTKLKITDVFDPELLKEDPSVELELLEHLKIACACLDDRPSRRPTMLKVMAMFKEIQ
- test description: thermal shift delta Tm vs DMSO control; higher = stronger stabilization (binding)
- experimental parameters: 12.5 µM; protein concentration 2 µM
property: thermal shift delta Tm (°C)

- molecule: "Nc1ccc(-c2ccc3ncc4ccc(=O)n(-c5cccc(C(F)(F)F)c5)c4c3c2)cn1 [Torin 2]"
  property: "thermal shift delta Tm"
  unit symbol: "°C"
  recorded measurement: 0.7
- molecule: "COc1ccc(-c2nc(N3CCOCC3)c3sc(CN(C)c4ncc(C(=O)NO)cn4)cc3n2)cn1"
  property: "thermal shift delta Tm"
  unit symbol: "°C"
  recorded measurement: -0.17
- molecule: "CC(C)(C)c1cc(NC(=O)Nc2ccc(-c3cn4c(n3)sc3cc(OCCN5CCOCC5)ccc34)cc2)no1 [Quizartinib (AC220)]"
  property: "thermal shift delta Tm"
  unit symbol: "°C"
  recorded measurement: 0.84
- molecule: "COc1ccc(CNC(=O)Nc2ncc([N+](=O)[O-])s2)cc1"
  property: "thermal shift delta Tm"
  unit symbol: "°C"
  recorded measurement: 0.42
- molecule: "Cn1cnc2c(F)c(Nc3ccc(Br)cc3Cl)c(C(=O)NOCCO)cc21 [Selumetinib (AZD6244)]"
  property: "thermal shift delta Tm"
  unit symbol: "°C"
  recorded measurement: 0.08
- molecule: "COc1cc2ncnc(Nc3ccc(Oc4ccccc4)cc3C)c2cc1OC"
  property: "thermal shift delta Tm"
  unit symbol: "°C"
  recorded measurement: 2.07
- molecule: "CC(C)[C@H](CO)Nc1nc(Nc2cccc(Cl)c2)c2ncn(C(C)C)c2n1 [Purvalanol A]"
  property: "thermal shift delta Tm"
  unit symbol: "°C"
  recorded measurement: 5
- molecule: "CCN1/C(=C/C(C)=O)Sc2ccc(OC)cc21"
  property: "thermal shift delta Tm"
  unit symbol: "°C"
  recorded measurement: -0.01
- molecule: "CCn1nc(C2CCN(C(=O)CCO)CC2)nc1-c1cnc(N)c(-c2nnc(C(C)(C)C)o2)n1"
  property: "thermal shift delta Tm"
  unit symbol: "°C"
  recorded measurement: 1.14
- molecule: "CN(C[C@@H]1COCCO1)S(=O)(=O)Nc1ccc2ccc3ncc(-c4cnn(C)c4)cc3c(=O)c2c1"
  property: "thermal shift delta Tm"
  unit symbol: "°C"
  recorded measurement: 10.3
- molecule: "Cc1ccc(NC(=O)c2ccc(CN3CCN(C)CC3)cc2)cc1Nc1nccc(-c2cccnc2)n1 [Imatinib (STI571)]"
  property: "thermal shift delta Tm"
  unit symbol: "°C"
  recorded measurement: 0.62
- molecule: "Cc1ccc(Nc2nccc(N(C)c3ccc4c(C)n(C)nc4c3)n2)cc1S(N)(=O)=O [Pazopanib]"
  property: "thermal shift delta Tm"
  unit symbol: "°C"
  recorded measurement: 0.91
- molecule: "CN(C)S(=O)(=O)c1ccc2c(c1)/C(=C/c1cc3c([nH]1)CCCC3)C(=O)N2"
  property: "thermal shift delta Tm"
  unit symbol: "°C"
  recorded measurement: 13

====

- Test system: LOC_OS02G17970-cb001
- test description: thermal shift delta Tm vs DMSO control; higher = stronger stabilization (binding)
- experimental parameters: 12.5 µM; protein concentration 2 µM

- query smiles: "CNC(=O)c1cc(Oc2ccc3nc(N[C@@H]4CCCC[C@H]4O)sc3c2)ccn1"
  thermal shift delta Tm [°C]: 0.53
- query smiles: "CNC(=O)CN1CCC(Oc2cc3c(Nc4cccc(Cl)c4F)ncnc3cc2OC)CC1"
  thermal shift delta Tm [°C]: -0.13
- query smiles: "COc1cccc(-n2c(=O)[nH]c3cc(Cl)n(-c4ccc(-c5cccc(OC)c5O)cc4)c3c2=O)c1"
  thermal shift delta Tm [°C]: 0.69
- query smiles: "N#CC(=C(/N)Sc1ccccc1N)/C(C#N)=C(\\N)Sc1ccccc1N"
  thermal shift delta Tm [°C]: 0.85
- query smiles: "CC(C)Oc1ccc(-c2nn([C@@H](C)c3oc4ccc(F)cc4c(=O)c3-c3cccc(F)c3)c3ncnc(N)c23)cc1F"
  thermal shift delta Tm [°C]: 1.06
- query smiles: "Cc1cc(N2CCOCC2)cc2[nH]c(-c3c(NC[C@@H](O)c4cccc(Cl)c4)cc[nH]c3=O)nc12"
  thermal shift delta Tm [°C]: 0.82
- query smiles: "COc1cc2nccc(Oc3ccc(NC(=O)C4(C(=O)Nc5ccc(F)cc5)CC4)cc3)c2cc1OC"
  thermal shift delta Tm [°C]: 0.76
